assay_explanation: Phase 1 single ascending dose (SAD) clinical trial: pharmacokinetics, safety and tolerability
Format: in vivo, human
condition_description: both sexes, human, in vivo; 300 mg single oral dose, after high-fat breakfast; read-out: C24 hr, mean

| structure | concentration at 24 h, ng/mL |
| --- | --- |
| [2H]C([2H])([2H])C(c1cc(C(C)(C)C)c(NC(=O)c2c[nH]c3ccccc3c2=O)cc1O)(C([2H])([2H])[2H])C([2H])([2H])[2H] | 1540 |

----------
Reported concentration at 12 h values are given for each entry in this list.
assay_explanation: Phase 1 single ascending dose (SAD) clinical trial: pharmacokinetics, safety and tolerability
Assay type: in vivo, human
condition_description: both sexes, human, plasma; 150 mg single oral dose, n = 9; read-out: C12 hr, mean
readout: concentration at 12 h (ng/mL)

| compound | readout | obs_value |
| --- | --- | --- |
| [2H]C([2H])([2H])C(c1cc(C(C)(C)C)c(NC(=O)c2c[nH]c3ccccc3c2=O)cc1O)(C([2H])([2H])[2H])C([2H])([2H])[2H] | concentration at 12 h | 1310 |
| CC(C)(C)c1cc(C(C)(C)C)c(NC(=O)c2c[nH]c3ccccc3c2=O)cc1O [ivacaftor, reference compound] | concentration at 12 h | 413 |

----------
assay_explanation: Phase 1 single ascending dose (SAD) clinical trial: pharmacokinetics, safety and tolerability
Format: in vivo, human
condition_description: both sexes, human, plasma, po, 150 mg, 150 mg single oral dose, after high-fat breakfast; CTP-656 aqueous suspension, Kalydeco tablet; read-out: T1/2, mean (converted)

| structure | unit_label | half-life |
| --- | --- | --- |
| [2H]C([2H])([2H])C(c1cc(C(C)(C)C)c(NC(=O)c2c[nH]c3ccccc3c2=O)cc1O)(C([2H])([2H])[2H])C([2H])([2H])[2H] | h | 15 |

----------
assay_explanation: Phase 1 single ascending dose (SAD) clinical trial: pharmacokinetics, safety and tolerability
Type: in vivo, human
condition_description: both sexes, human, in vivo; 75 mg single oral dose, after high-fat breakfast; read-out: AUC0-inf, mean

| structure | unit_label | AUC(0-inf) |
| --- | --- | --- |
| [2H]C([2H])([2H])C(c1cc(C(C)(C)C)c(NC(=O)c2c[nH]c3ccccc3c2=O)cc1O)(C([2H])([2H])[2H])C([2H])([2H])[2H] | ng·h/mL | 16600 |

----------
assay_explanation: Phase 1 single ascending dose (SAD) clinical trial: pharmacokinetics, safety and tolerability
Assay type: in vivo, human
condition_description: both sexes, human, plasma; 150 mg single oral dose, after high-fat breakfast; CTP-656 aqueous suspension, Kalydeco tablet

| molecule | unit_label | Cmax |
| --- | --- | --- |
| [2H]C([2H])([2H])C(c1cc(C(C)(C)C)c(NC(=O)c2c[nH]c3ccccc3c2=O)cc1O)(C([2H])([2H])[2H])C([2H])([2H])[2H] | ng/mL | 2210 |
| CC(C)(C)c1cc(C(C)(C)C)c(NC(=O)c2c[nH]c3ccccc3c2=O)cc1O [ivacaftor, reference compound] | ng/mL | 1100 |

----------
assay_explanation: Phase 1 single ascending dose (SAD) clinical trial: pharmacokinetics, safety and tolerability
Assay type: in vivo, human
condition_description: both sexes, human, in vivo, po, 150 mg, 150 mg single oral dose, after high-fat breakfast; CTP-656 aqueous suspension, Kalydeco tablet; read-out: T1/2, mean (converted)

| compound | half-life |
| --- | --- |
| CC(C)(C)c1cc(C(C)(C)C)c(NC(=O)c2c[nH]c3ccccc3c2=O)cc1O [ivacaftor, reference compound] | 11.2 h |
| [2H]C([2H])([2H])C(c1cc(C(C)(C)C)c(NC(=O)c2c[nH]c3ccccc3c2=O)cc1O)(C([2H])([2H])[2H])C([2H])([2H])[2H] [CTP-656] | 15 h |

----------
assay_explanation: Phase 1 single ascending dose (SAD) clinical trial: pharmacokinetics, safety and tolerability
Type: in vivo, human
condition_description: both sexes, human, in vivo; 300 mg single oral dose, after high-fat breakfast; read-out: Tmax, median

| structure | Tmax (h) |
| --- | --- |
| [2H]C([2H])([2H])C(c1cc(C(C)(C)C)c(NC(=O)c2c[nH]c3ccccc3c2=O)cc1O)(C([2H])([2H])[2H])C([2H])([2H])[2H] | 5 |

----------
assay_explanation: Phase 1 single ascending dose (SAD) clinical trial: pharmacokinetics, safety and tolerability
Type: in vivo, human
condition_description: both sexes, human, in vivo; 75 mg single oral dose, after high-fat breakfast; read-out: C24 hr, mean

| compound | concentration at 24 h (ng/mL) |
| --- | --- |
| [2H]C([2H])([2H])C(c1cc(C(C)(C)C)c(NC(=O)c2c[nH]c3ccccc3c2=O)cc1O)(C([2H])([2H])[2H])C([2H])([2H])[2H] [CTP-656] | 270 |

----------
assay_explanation: Phase 1 single ascending dose (SAD) clinical trial: pharmacokinetics, safety and tolerability
Assay type: in vivo, human
condition_description: both sexes, human, in vivo; 75 mg single oral dose, after high-fat breakfast, healthy volunteers; read-out: Tmax, median
Method: Ten healthy male and female volunteers were enrolled in a single ascending dose study of 3 doses of CTP-656 (75, 150 and 300 mg), with a cross-over comparison of 150 mg CTP-656 and 150 mg Kalydeco® (the trade name of ivacaftor) (FIG. 5). Doses of CTP-656 were administered as an aqueous suspension, and Kalydeco was administered as a tablet. All doses of CTP-656 and Kalydeco were administered within 30 minutes after the start of a high-fat containing breakfast. […]
readout: Tmax (h)

| structure | readout | unit_label | obs_value |
| --- | --- | --- | --- |
| [2H]C([2H])([2H])C(c1cc(C(C)(C)C)c(NC(=O)c2c[nH]c3ccccc3c2=O)cc1O)(C([2H])([2H])[2H])C([2H])([2H])[2H] | Tmax | h | 5 |

----------
assay_explanation: Phase 1 single ascending dose (SAD) clinical trial: pharmacokinetics, safety and tolerability
Format: in vivo, human
condition_description: both sexes, human, in vivo; 150 mg single oral dose, after high-fat breakfast; CTP-656 aqueous suspension, Kalydeco tablet; read-out: Tmax, median
Reported Tmax values are given for each entry in this list.

| compound | Tmax |
| --- | --- |
| [2H]C([2H])([2H])C(c1cc(C(C)(C)C)c(NC(=O)c2c[nH]c3ccccc3c2=O)cc1O)(C([2H])([2H])[2H])C([2H])([2H])[2H] [CTP-656] | 5 h |
| CC(C)(C)c1cc(C(C)(C)C)c(NC(=O)c2c[nH]c3ccccc3c2=O)cc1O [ivacaftor, reference compound] | 5 h |

----------
Reported concentration at 24 h values are given for each entry in this list.
assay_explanation: Human crossover study for D9-ivacaftor and D18-ivacaftor (25 mg single dose)
Type: in vivo
condition_description: human, in vivo; 25 mg single oral dose, aqueous suspension, fasted; read-out: C24 hr, mean
readout: concentration at 24 h (ng/mL)

| molecule | obs_value |
| --- | --- |
| [2H]C([2H])([2H])C(c1cc(C(C([2H])([2H])[2H])(C([2H])([2H])[2H])C([2H])([2H])[2H])c(NC(=O)c2c[nH]c3ccccc3c2=O)cc1O)(C([2H])([2H])[2H])C([2H])([2H])[2H] [D18-ivacaftor] | 42.3 |
| [2H]C([2H])([2H])C(c1cc(C(C)(C)C)c(NC(=O)c2c[nH]c3ccccc3c2=O)cc1O)(C([2H])([2H])[2H])C([2H])([2H])[2H] [CTP-656] | 52.6 |

----------
assay_explanation: Phase 1 single ascending dose (SAD) clinical trial: pharmacokinetics, safety and tolerability
Assay type: in vivo, human
condition_description: both sexes, human, plasma; 150 mg single oral dose, n = 9; read-out: Tmax, range

| molecule | Tmax |
| --- | --- |
| CC(C)(C)c1cc(C(C)(C)C)c(NC(=O)c2c[nH]c3ccccc3c2=O)cc1O [ivacaftor, reference compound] | 3 to 10 h |
| [2H]C([2H])([2H])C(c1cc(C(C)(C)C)c(NC(=O)c2c[nH]c3ccccc3c2=O)cc1O)(C([2H])([2H])[2H])C([2H])([2H])[2H] [CTP-656] | 5 to 10 h |

----------
assay_explanation: Phase 1 single ascending dose (SAD) clinical trial: pharmacokinetics, safety and tolerability
Format: in vivo, human
condition_description: both sexes, human, in vivo, po, 300 mg, 300 mg single oral dose, after high-fat breakfast; read-out: T1/2, mean (converted)

| molecule | unit_label | half-life |
| --- | --- | --- |
| [2H]C([2H])([2H])C(c1cc(C(C)(C)C)c(NC(=O)c2c[nH]c3ccccc3c2=O)cc1O)(C([2H])([2H])[2H])C([2H])([2H])[2H] [CTP-656] | h | 17.3 |

Origin of the recorded values: patent US20180353500A1
